experiment: Stability confirmation test (impurity formation during storage under severe conditions, liquid chromatography); assay type: physicochemical; conditions: high-humidity exposure condition (60° C., 95% relative humidity), After 2 weeks
value-kind: Peak area of total impurities (%)

Some solved entries appear below for comparison.
{"cpd-smiles": "CNCc1cn(S(=O)(=O)c2cccc(F)c2)c(-c2ccc(F)cc2F)c1OC.O=C(O)CCC(=O)O", "Peak area of total impurities (%)": 0.47}
{"cpd-smiles": "CNCc1cn(S(=O)(=O)c2cccc(F)c2)c(-c2ccc(F)cc2F)c1OC.O=C(O)/C=C/C(=O)O", "Peak area of total impurities (%)": 0.68}

(I) CNCc1cn(S(=O)(=O)c2cccc(F)c2)c(-c2ccc(F)cc2F)c1OC.O=C(O)C(O)C(O)C(=O)O
(II) CNCc1cn(S(=O)(=O)c2cccc(F)c2)c(-c2ccc(F)cc2F)c1OC.Cl
For the two items I and II , which reports the higher Peak area of total impurities value? Record your answer as the label of the chosen record. I
(I: 0.57%, II: 0.20%)

---

assay: Solubility test in water; format: physicochemical; conditions: thermodynamic from solid; deionized water, shaking and ultrasonic shaking
value-kind: solubility

{"compound": "CNCc1cn(S(=O)(=O)c2cccc(F)c2)c(-c2ccc(F)cc2F)c1OC.O=C(O)/C=C/C(=O)O [Example 5-1]", "recorded-measurement": "1730 to 2600 µg/mL"}

The record that follows has no solubility shown yet.
Please list solubility recorded for the compound CNCc1cn(S(=O)(=O)c2cccc(F)c2)c(-c2ccc(F)cc2F)c1OC [Comparative Example 1] < 160 µg/mL

---

assay: Stability confirmation test (impurity formation during storage under severe conditions, liquid chromatography); assay type: physicochemical; settings: moisture-proof condition (60° C., less than 10% relative humidity), After 2 weeks
value-kind: Peak area of main component (%)

{"cpd-smiles": "CNCc1cn(S(=O)(=O)c2cccc(F)c2)c(-c2ccc(F)cc2F)c1OC.O=C(O)C(O)C(O)C(=O)O", "Peak area of main component / %": 99.54}
{"cpd-smiles": "CNCc1cn(S(=O)(=O)c2cccc(F)c2)c(-c2ccc(F)cc2F)c1OC.O=C(O)CCC(=O)O", "Peak area of main component / %": 99.61}
{"cpd-smiles": "CNCc1cn(S(=O)(=O)c2cccc(F)c2)c(-c2ccc(F)cc2F)c1OC.O=C(O)/C=C/C(=O)O", "Peak area of main component / %": 99.36}
{"cpd-smiles": "CNCc1cn(S(=O)(=O)c2cccc(F)c2)c(-c2ccc(F)cc2F)c1OC.Cl", "Peak area of main component / %": 99.80}

---

experiment: Stability confirmation test (impurity formation during storage under severe conditions, liquid chromatography); type: physicochemical; conditions: high-humidity exposure condition (60° C., 95% relative humidity), After 2 weeks
value-kind: Peak area of main component (%)

{"cpd-smiles": "CNCc1cn(S(=O)(=O)c2cccc(F)c2)c(-c2ccc(F)cc2F)c1OC.O=C(O)/C=C/C(=O)O", "recorded-measurement": 99.32}
{"cpd-smiles": "CNCc1cn(S(=O)(=O)c2cccc(F)c2)c(-c2ccc(F)cc2F)c1OC.O=C(O)CCC(=O)O", "recorded-measurement": 99.53}
{"cpd-smiles": "CNCc1cn(S(=O)(=O)c2cccc(F)c2)c(-c2ccc(F)cc2F)c1OC.Cl", "recorded-measurement": 99.80}
{"cpd-smiles": "CNCc1cn(S(=O)(=O)c2cccc(F)c2)c(-c2ccc(F)cc2F)c1OC.O=C(O)C(O)C(O)C(=O)O", "recorded-measurement": 99.43}
